// provenance: patent US11059795B2

System: LNCaP tumors
Experiment: LNCaP xenografts model in castrated male NCG mice
Type: in vivo
Settings: Table 4; extrapolated Cmin in efficacy
Please respond with reported Cmin at 5 mg/kg PO for every item in the list.
Answers are plain numbers, in µM.

Consider the following illustrative entries.
CNC(=O)c1ccc(N2C(=S)N(c3ccc(C#N)c(C(F)(F)F)c3)C(=O)C2(C)C)cc1F [Enzalutamide, enzalutamide, reference compound]: 22.8
CC(C)(c1ccc(OCc2ocnc2S(C)(=O)=O)cc1)c1cc(Cl)c(OCCCl)c(Cl)c1: 2.78
CC(C)(c1ccc(OCc2ccnc(NS(C)(=O)=O)n2)cc1)c1cc(Cl)c(OCCCl)c(C#N)c1: 8.18

Incoming: Entry under review: `CC(C)(c1ccc(OCc2ccnc(NS(C)(=O)=O)n2)cc1)c1cc(Cl)c(OCCCl)c(Cl)c1` . Reported Cmin at 5 mg/kg PO?
Outgoing: 29.1

---

Assay: In vivo pharmacokinetics in plasma after oral gavage (PO) in male CD-1 mice
Settings: mouse, plasma; single PO dose 5 mg/kg, male CD-1 mice; oral availability
observation type: bioavailability (%)
Give bare numbers, in %.

Consider the following illustrative entries.
CC(C)(c1ccc(OCc2ncc(S(C)(=O)=O)o2)cc1)c1cc(Cl)c(OCCCl)c(Cl)c1 [Compound A66]: 71.4
Cc1cnc(NS(C)(=O)=O)nc1COc1ccc(C(C)(C)c2cc(Cl)c(OCCCl)c(C#N)c2)cc1 [Compound A122]: 92.4
C[C@H](Oc1ccc(C(C)(C)c2cc(Cl)c(OCCCl)c(C#N)c2)cc1)c1ccnc(NS(C)(=O)=O)n1 (single isomer, unassigned) [Compound A170]: 150
CC(C)(c1ccc(OCc2ncc(S(C)(=O)=O)s2)cc1)c1cc(Cl)c(OCCCl)c(C#N)c1 [Compound A93]: 62.8
CCS(=O)(=O)Nc1nccc(COc2ccc(C(C)(C)c3cc(Cl)c(OCCCl)c(C#N)c3)cc2)n1 [Compound A131]: 81

Each of the following entries comes with a recorded value; kindly state bioavailability for each.
1. CC(Oc1ccc(C(C)(C)c2cc(Cl)c(OCCCl)c(Cl)c2)cc1)c1ocnc1S(C)(=O)=O (stereo not shown) [Compound A35]
2. CC(C)(c1ccc(OCc2ocnc2S(C)(=O)=O)cc1)c1cc(Cl)c(OCCCl)c(C#N)c1 [Compound A28]
3. CC(C)(c1ccc(OCc2nc(S(C)(=O)=O)cs2)cc1)c1cc(Cl)c(OCCCl)c(C#N)c1 [Compound A136]
4. CCS(=O)(=O)Nc1nc(COc2ccc(C(C)(C)c3cc(Cl)c(OCCCl)c(C#N)c3)cc2)co1 [Compound A126]
5. Cc1cc(C(C)(C)c2ccc(OCc3ocnc3S(C)(=O)=O)cc2)cc(C#N)c1OCCCl [Compound A29]
6. CC(C)(c1ccc(OCc2ocnc2S(C)(=O)=O)cc1)c1cc(Cl)c(OCCCl)c(Cl)c1 [Compound A13]

Outgoing:
49.6
50.3
14
86
60.6
85.8

Each of the following entries comes with a recorded value; kindly state bioavailability for each.
1. CC(C)(c1ccc(OCc2ccnc(NS(C)(=O)=O)n2)cc1)c1cc(Cl)c(OCCCl)c(C#N)c1 [Compound A109]
2. CC(C)(c1ccc(OCc2coc(NS(C)(=O)=O)n2)cc1)c1cc(Cl)c(OCCCl)c(Cl)c1 [Compound A38]

Outgoing:
33.6
86.4
